species on record: Homo sapiens; test: To identify inhibition of the IFN signalling (Jak-Stat) pathway via expression of an eGFP reporter gene under the control of an IFN-stimulated response element (ISRE) containing MxA promoter.; format: functional; set-up: scale not given: direction of the effect not stated beside the values; conditions: 30 µM
endpointLabel: Percent Effect (%)
Use % as the unit, but write only the number.

Reference set (5 entries):
# molecule, Percent Effect, %
data = [
    ("CCN(Cc1cccc2c1OCO2)C(=O)Nc1ccncc1", 34.4),
    ("CC(C)N1CCC(CNCc2c[nH]nc2C(C)(C)C)C1 (configuration not stated)", 22),
    ("Cc1cccc(CNC(=O)CNc2cc(CO)ccc2Cl)c1", -4.91),
    ("Cc1nnc(CCNC2CCN(c3ncnc4c(C)csc34)CC2)s1", 40.2),
    ("Cc1cnc2n(c1=O)CC(C(=O)NC1CC1)CS2 (configuration not stated)", 1.36),
]

INPUT: Read off the recorded Percent Effect for CC(C)(C)OC(=O)CNC(=O)CCc1nnc(-c2ccsc2)o1
OUTPUT: 6.67

INPUT: Read off the recorded Percent Effect for CCc1nc(CCNC(=O)C2CCOC2)sc1C (configuration not stated)
OUTPUT: 9.42

INPUT: Read off the recorded Percent Effect for CCc1csc(C2CCCN(C(=O)c3cnn(CC)c3)C2)n1 (configuration not stated)
OUTPUT: 6.86

INPUT: Read off the recorded Percent Effect for Cn1nc(CNC(=O)C2COc3ccccc3O2)cc1C1CC1 (configuration not stated)
OUTPUT: 1.88

###

target: Arginase-2, mitochondrial (Homo sapiens); test: in vitro enzyme assay to detect the production of urea directly proportional to the activity of Arginase II; assay type: functional; parameters: scale not given: in the data most compounds retested in dose-response had high values; conditions: 33.3 µM
endpointLabel: Percent Effect (%)
Use % as the unit, but write only the number.

Reference set (5 entries):
# compound, Percent Effect, %
records = [
    ("CCOCC(=O)N1CCC(Oc2ccc(Cl)cn2)CC1", 4.52),
    ("COc1ccc(CC(=O)N2CCCCC2Cn2cccn2)cc1OC (configuration not stated)", -11.8),
    ("O=S(=O)(NC1=NCN(CCc2cccs2)CN1)c1ccccc1", -11.1),
    ("COc1cccc2c1ccn2CCC(=O)NCCCC(=O)O", -2.99),
    ("Cc1ccc(C(=O)N2CCN(S(C)(=O)=O)CC2)cc1N1CCNC1=O", 5.73),
]

INPUT: For Arginase-2, mitochondrial (Homo sapiens), give the measured Percent Effect of the entry Cc1cc(C)n(-c2cncc(NCCNC(=O)CC3CCCC3)n2)n1
OUTPUT: 1.24

INPUT: For Arginase-2, mitochondrial (Homo sapiens), give the measured Percent Effect of the entry CCc1[nH]ncc1C(=O)N1CCCC(n2cccn2)C1 (configuration not stated)
OUTPUT: 4.88

INPUT: For Arginase-2, mitochondrial (Homo sapiens), give the measured Percent Effect of the entry c1cnc(N2CCC3(CC2)CN(CC2CC2)c2ccccc23)nc1
OUTPUT: -2.28

###

molecular target: Arginase-2, mitochondrial (Homo sapiens) (UniProt P78540); assay: in vitro enzyme assay to detect the production of urea directly proportional to the activity of Arginase II; format: functional; design: scale not given: in the data most compounds retested in dose-response had high values; conditions: 33.3 µM
Sequence (P78540 whole entry): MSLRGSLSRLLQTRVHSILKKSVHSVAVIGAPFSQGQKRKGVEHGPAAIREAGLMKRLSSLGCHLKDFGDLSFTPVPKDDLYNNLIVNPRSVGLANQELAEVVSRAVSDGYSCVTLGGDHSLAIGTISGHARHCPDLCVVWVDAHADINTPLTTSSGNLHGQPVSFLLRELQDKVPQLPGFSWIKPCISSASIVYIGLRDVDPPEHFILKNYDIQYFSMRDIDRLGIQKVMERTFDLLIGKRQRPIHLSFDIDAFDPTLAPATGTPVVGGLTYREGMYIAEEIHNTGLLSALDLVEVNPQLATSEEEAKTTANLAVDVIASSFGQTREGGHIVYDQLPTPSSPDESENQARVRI
endpointLabel: Percent Effect (%)
Use % as the unit, but write only the number.

Reference set (3 entries):
# molecule, endpointLabel, assayValue
measured = [
    ("CCS(=O)(=O)N1C[C@H]2CCC[C@@]2(COc2ccccn2)C1", "Percent Effect", -6.16),
    ("CC(C)N1CCC(Cc2cc(-c3ccccc3C(=O)O)ncn2)CC1", "Percent Effect", 2.09),
    ("COc1cccc(C(=O)N2CCCCC2CNC(N)=O)c1 (configuration not stated)", "Percent Effect", -3.6),
]

INPUT: Read off the recorded Percent Effect for CN(C)Cc1cnc2n1CCN(Cc1ccsc1)CC2
OUTPUT: 1.2

INPUT: Read off the recorded Percent Effect for CCc1nc(CCNC(=O)C2CCOC2)sc1C (configuration not stated)
OUTPUT: 3.75

INPUT: Read off the recorded Percent Effect for Cn1cnnc1C1CCCN(C(=O)c2ccccc2Cl)C1 (configuration not stated)
OUTPUT: 0.632

INPUT: Read off the recorded Percent Effect for N#Cc1ccccc1N1CCCN(C(=O)CCc2nccs2)CC1
OUTPUT: 5.7

INPUT: Read off the recorded Percent Effect for O=C(NCCn1ccnc1)N1CCCC1c1ccsc1 (configuration not stated)
OUTPUT: 1.64

INPUT: Read off the recorded Percent Effect for COc1ccccc1OCc1cc(C(=O)N2CC(O)C2)n[nH]1
OUTPUT: 3.09

INPUT: Read off the recorded Percent Effect for CN(C)C[C@H]1OC[C@@H]2CCN(S(=O)(=O)c3ccccc3)C[C@@H]21
OUTPUT: -5.26

INPUT: Read off the recorded Percent Effect for CCOc1ccccc1-c1noc(CN(C)Cc2cnn(C)c2)n1
OUTPUT: -4.76

INPUT: Read off the recorded Percent Effect for Cn1nc(C2CCCN(Cc3cccc(F)c3)C2)c2nccnc21 (configuration not stated)
OUTPUT: -1.62

###

tested on: Trypanosoma cruzi; experiment: Trypanosoma cruzi phosphomannomutase and mannose-1-phosphate guanylyltransferase assay; assay type: functional; set-up: scale not given: direction of the effect not stated beside the values; conditions: 10 µM
endpointLabel: Percent Effect (%)
Use % as the unit, but write only the number.

Reference set (10 entries):
# compound, Percent Effect / %
measured = [
    ("CN(Cc1ccc(Cl)c(Cl)c1)C(=O)CNC(N)=O", 3.6),
    ("O=C(COC(=O)Cc1cccs1)NCc1cccc(NC(=O)C2CC2)c1", -3.27),
    ("Cn1c(C2CC2)nc2c1CCN(CC(=O)Nc1nncs1)C2", -2.06),
    ("CC(O)CN1CCN(C(=O)CN(C)c2ccc(Cl)cn2)CC1 (stereo not given)", -1.93),
    ("COC[C@@]12CC[C@@H](N3CCOCC3)C[C@H]1CCN(c1ncccc1Cl)C2", 4.56),
    ("CSCc1nc(C(C)(C)NC(=O)OC(C)(C)C)no1", 7.3),
    ("Cc1nc(CN2CCC(N(C)Cc3noc(C4CC4)n3)C2)oc1C (stereo not given)", 1.31),
    ("Cc1cc(CN2CCCC2Cn2cncn2)no1 (stereo not given)", 11.9),
    ("COCC(=O)N1CCC(c2cccc(Cc3ccc(F)cc3)n2)CC1", -6.13),
    ("Cc1cc(C2CCCN(C(=O)c3cnccn3)C2)ccn1 (stereo not given)", -5.93),
]

INPUT: Read off the recorded Percent Effect for O=C(c1cc(C2CC2)on1)N1CC[C@]2(C[C@H](Oc3cccnc3)CO2)C1
OUTPUT: 6.52

INPUT: Read off the recorded Percent Effect for CC(C)COCC(NC(=O)c1ccccn1)c1ccco1 (stereo not given)
OUTPUT: 4.62

INPUT: Read off the recorded Percent Effect for CN(C(=O)c1ccccn1)c1nc2c(s1)CCc1c-2cnn1C
OUTPUT: 4.94

INPUT: Read off the recorded Percent Effect for O=C(c1cnc(COc2ccccc2)nc1O)N1CCOCC1
OUTPUT: -1.07

INPUT: Read off the recorded Percent Effect for Cc1cnn(CCC(=O)N2CCN(c3nc(C)cs3)CC2)c1
OUTPUT: 5.76

INPUT: Read off the recorded Percent Effect for Clc1snnc1CN1CCOC(CNc2cccnn2)C1 (stereo not given)
OUTPUT: 5.8

INPUT: Read off the recorded Percent Effect for CCc1nc(CN2CCCN(C(=O)C(C)n3cncn3)CC2)cs1 (stereo not given)
OUTPUT: -6.93

###

# Percent Effect per entry
biological target: Tyrosyl-tRNA synthetase, putative (Trypanosoma cruzi (strain CL Brener)); experiment: Trypanosoma cruzi tyrosyl tRNA synthetase (TcYRS) _High Tyrosine SOP; assay type: functional; parameters: scale not given: in the data most compounds retested in dose-response had high values; conditions: 30 µM
Use % as the unit, but write only the number.

# compound, unitAbbreviation, Percent Effect
records = [
    ("CC(C)C(=O)N1CCN(Cc2csc(-c3ncccn3)n2)CC1", "%", 4.25),
    ("Cn1cnnc1S(=O)(=O)C1CCN(S(=O)(=O)c2ccc(F)c(Cl)c2)CC1", "%", -1.07),
    ("Cc1ccc(CNC(=O)NCc2cccnc2N(C)C)s1", "%", 8.74),
]

INPUT: Read off the recorded Percent Effect for CC(C(=O)NCCN1CCCCCC1)n1cncn1 (stereo not given)
OUTPUT: 4.43

###

species on record: Homo sapiens; experiment: To identify inhibition of the IFN signalling (Jak-Stat) pathway via expression of an eGFP reporter gene under the control of an IFN-stimulated response element (ISRE) containing MxA promoter.; assay type: functional; set-up: scale not given: direction of the effect not stated beside the values; conditions: 30 µM
# Percent Effect per entry
Use % as the unit, but write only the number.

# compound, Percent Effect / %
measured = [
    ("CN(C)C(=O)N[C@@H]1CN(Cc2ccc3c(c2)OCO3)[C@@H]2CCCO[C@@H]21", 1.11),
]

Continue with the compound presented below.
INPUT: Read off the recorded Percent Effect for Cc1ccc(NC(=O)CNc2cccc3c2CCCC3)c(Br)c1
OUTPUT: -16
